This section lists Ki readings for UniProt Q13464.

Example entries begin here.
# compound, Ki
records = [
    ("CC1=C(C(=O)Nc2ccc3[nH]ncc3c2)C(c2ccc(F)cc2)n2ncc(C(N)=O)c2N1 (centres unmarked)", "50 to 500 nM"),
    ("CC1=C(C(=O)Nc2ccc3[nH]ncc3c2)C(c2ccc(F)cc2)n2ncc(C#N)c2N1 (centres unmarked)", "< 50 nM"),
]

Look at each compound and report its Ki.
1. CC1=C(C(=O)Nc2ccc3cnccc3c2)C(c2ccc(Br)cc2)n2nc(CO)cc2N1 (single isomer, unassigned) [Example 61B]
2. CC1=C(C(=O)Nc2ccc3cnccc3c2)C(c2cnc(-c3ccccc3)o2)n2nc(CO)cc2N1 (centres unmarked)
3. CCOC(=O)c1cc2n(n1)C(C1CCOCC1)C(C(=O)Nc1ccc3[nH]ncc3c1)=C(C)N2 (centres unmarked)

Data returned:
["50 to 500 nM", "50 to 500 nM", "50 to 500 nM"]

Below are 8 compounds. Give each one its Ki.
1. CC1=C(C(=O)Nc2ccc3cnccc3c2)C(c2ccc(C(F)(F)F)c(F)c2)n2nc(NC(=O)CN3CCCC3)cc2N1 (single isomer, unassigned) [132A]
2. CC1=C(C(=O)Nc2ccc3cnccc3c2)C(c2ccc(C(F)(F)F)c(F)c2)n2nc(CN3CCN(C)CC3)cc2N1 (single isomer, unassigned) [Example 96B]
3. CCOC(=O)c1cc2n(n1)C(CC(C)C)C(C(=O)Nc1ccc3[nH]ncc3c1)=C(C)N2 (centres unmarked)
4. CC1=C(C(=O)Nc2ccc3cnccc3c2)C(c2ccc(Cl)cc2)n2nc(CO)cc2N1 (single isomer, unassigned) [Example 62A]
5. CC1=C(C(=O)Nc2ccc3cnccc3c2)C(c2ccc(C)cc2F)n2nc(CO)cc2N1 (centres unmarked)
6. CC1=C(C(=O)Nc2ccc3cnccc3c2)C(c2ccc(C(F)(F)F)c(F)c2F)n2nc(CN(C)C)cc2N1 (single isomer, unassigned) [Example 122b]
7. CC1=C(C(=O)Nc2ccc3cnccc3c2)C(c2ccc(Br)c(F)c2)n2nc(CO)cc2N1 (centres unmarked)
8. CC1=C(C(=O)Nc2ccc3cnccc3c2)C(c2ccc(C(F)(F)F)c(F)c2)n2nc(C(=O)NCCN3CCOCC3)cc2N1 (centres unmarked)

Data returned:
1. < 50 nM
2. < 50 nM
3. 50 to 500 nM
4. < 50 nM
5. < 50 nM
6. < 50 nM
7. < 50 nM
8. < 50 nM

Parameters: items (list). Returns: Ki for each item.
1. CC1=C(C(=O)Nc2ccc3cnccc3c2)C(c2ccc(C(F)(F)F)c(F)c2)n2nc(CN3CCC4(CCN(C)CC4)C3)cc2N1 (centres unmarked)
2. COC1CCN(Cc2cc3n(n2)C(c2ccc(C(F)(F)F)c(F)c2)C(C(=O)Nc2ccc4cnccc4c2)=C(C)N3)CC1 (centres unmarked)

Data returned:
< 50 nM
< 50 nM

Count: 7. Required value per item: Ki.
1. CC1=C(C(=O)Nc2ccc3cnccc3c2)C(c2ccc(C(F)(F)F)c(F)c2)n2nc(C(=O)N(C)CCCN(C)C)cc2N1 (centres unmarked)
2. CC1=C(C(=O)Nc2ccc3[nH]ncc3c2)C(c2ccc(C(F)(F)F)c(F)c2)n2nnnc2N1 (single isomer, unassigned) [Example 25B]
3. CC1=C(C(=O)Nc2ccc3cnccc3c2)C(c2ccc3ccsc3c2)n2nc(CO)cc2N1 (centres unmarked)
4. CCOC(=O)c1cnn2c1NC(C)=C(C(=O)Nc1ccc3[nH]ncc3c1)C2c1ccc(F)cc1 (centres unmarked)
5. CC1=C(C(=O)Nc2ccc3cnccc3c2)C(c2ccc(Cl)cc2)n2nc(CO)cc2N1 (single isomer, unassigned) [Example 62B]
6. CC1=C(C(=O)Nc2ccc3cnccc3c2)C(c2ccc(C(F)(F)F)c(F)c2)n2nc(CN(C)C)cc2N1 (single isomer, unassigned) [Example 94B]
7. CC1=C(C(=O)Nc2ccc3cnccc3c2)C(c2ccc(C)c(F)c2)n2nc(CN(C)C)cc2N1 (single isomer, unassigned) [Example 110B]

Data returned:
1. < 50 nM
2. 50 to 500 nM
3. < 50 nM
4. > 500 nM
5. 50 to 500 nM
6. < 50 nM
7. < 50 nM

----------
pKi: −log10 of the molar value.
pKi data for Rho kinase 1 (Homo sapiens) follow.

# compound, pKi
records = [
    ("CC1=C(C(=O)Nc2ccc3cnccc3c2)C(c2ccc(C(F)(F)F)cc2)n2nc(CO)cc2N1 (single isomer, unassigned) [Example 43A]", "< 6.30"),
    ("CC1=C(C(=O)Nc2ccc3[nH]ncc3c2)C(c2ccc(F)cc2)n2nc(C#N)cc2N1 (stereo not drawn) [Example 31]", "> 7.30"),
    ("CC1=C(C(=O)Nc2ccc3[nH]ncc3c2)C(c2ccc(Cl)cc2)n2nnnc2N1 (single isomer, unassigned) [Example 24A]", "> 7.30"),
]

// batch mode: one pKi value per listed entry
1. CC1=C(C(=O)Nc2cc3cn[nH]c3cc2F)C(c2ccc(Cl)nc2)n2nc(C(F)(F)F)cc2N1 (stereo not drawn) [Example 39]
2. CC1=C(C(=O)Nc2ccc3[nH]ncc3c2)C(c2ccc(C(F)(F)F)cc2F)n2nnnc2N1 (single isomer, unassigned) [Example 26B]
3. CC(=O)N1CCN(Cc2cc3n(n2)C(c2ccc(C(F)(F)F)c(F)c2)C(C(=O)Nc2ccc4cnccc4c2)=C(C)N3)CC1 (stereo not drawn) [Example 109]
4. CC1=C(C(=O)Nc2ccc3cnccc3c2)C(c2ccc(C(F)(F)F)c(F)c2)n2nc(CN3CC(CN(C)C)C3)cc2N1 (stereo not drawn) [Example 106]
5. CCOC(=O)c1cc2n(n1)C(C1CCCCC1)C(C(=O)Nc1ccc3[nH]ncc3c1)=C(C)N2 (stereo not drawn) [Example 14]
6. CC1=C(C(=O)Nc2ccc3cnccc3c2)C(c2ccc(C(F)(F)F)c(F)c2)n2nc(CN(C)C)cc2N1 (single isomer, unassigned) [Example 94A]
7. CC1=C(C(=O)Nc2ccc3[nH]ncc3c2)C(c2ccc(F)cc2)n2nc(CO)cc2N1 (single isomer, unassigned) [Example 71A]

Data returned:
1: > 7.30; 2: 6.30 to 7.30; 3: > 7.30; 4: > 7.30; 5: 6.30 to 7.30; 6: 6.30 to 7.30; 7: > 7.30

Batch request: pKi for each of the following compounds.
1. CC1=C(C(=O)Nc2ccc3cnccc3c2)C(c2ccc(C(F)(F)F)c(F)c2)n2nc(NC(=O)c3ccc(CN(C)C)cc3)cc2N1 (single isomer, unassigned) [Example 137A]
2. CC1=C(C(=O)Nc2ccc3[nH]ncc3c2)C(c2ccc(C(F)(F)F)cc2)n2nc(CO)cc2N1 (single isomer, unassigned) [Example 69B]

Data returned:
["< 6.30", "> 7.30"]

----------
This document collects Ki values reported for Rho kinase 1 (Homo sapiens, UniProt Q13464).

# compound, Ki
records = [
    ("CC1=C(C(=O)Nc2ccc3cnccc3c2)C(c2ccc(C(F)(F)F)c(F)c2)n2nc(N)cc2N1 (single isomer, unassigned) [130A]", "> 500 nM"),
    ("CC1=C(C(=O)Nc2ccc3cnccc3c2)C(C2Cc3ccccc3C2)n2nc(CN(C)C)cc2N1 (single isomer, unassigned) [Example 124a]", "> 500 nM"),
    ("CC1=C(C(=O)Nc2ccc3[nH]ncc3c2)C(c2ccc(Cl)cc2)n2nnnc2N1 (single isomer, unassigned) [Example 24B]", "50 to 500 nM"),
]

Data request: // fetch Ki for CC1=C(C(=O)Nc2ccc3cnccc3c2)C(c2ccc(C(F)(F)F)c(F)c2)n2nc(CNC(=O)CCN3CCCCC3)cc2N1 (single isomer, unassigned) [Example 138B] ; system: Rho kinase 1 (Homo sapiens, UniProt Q13464)
Sequence (Q13464 whole entry): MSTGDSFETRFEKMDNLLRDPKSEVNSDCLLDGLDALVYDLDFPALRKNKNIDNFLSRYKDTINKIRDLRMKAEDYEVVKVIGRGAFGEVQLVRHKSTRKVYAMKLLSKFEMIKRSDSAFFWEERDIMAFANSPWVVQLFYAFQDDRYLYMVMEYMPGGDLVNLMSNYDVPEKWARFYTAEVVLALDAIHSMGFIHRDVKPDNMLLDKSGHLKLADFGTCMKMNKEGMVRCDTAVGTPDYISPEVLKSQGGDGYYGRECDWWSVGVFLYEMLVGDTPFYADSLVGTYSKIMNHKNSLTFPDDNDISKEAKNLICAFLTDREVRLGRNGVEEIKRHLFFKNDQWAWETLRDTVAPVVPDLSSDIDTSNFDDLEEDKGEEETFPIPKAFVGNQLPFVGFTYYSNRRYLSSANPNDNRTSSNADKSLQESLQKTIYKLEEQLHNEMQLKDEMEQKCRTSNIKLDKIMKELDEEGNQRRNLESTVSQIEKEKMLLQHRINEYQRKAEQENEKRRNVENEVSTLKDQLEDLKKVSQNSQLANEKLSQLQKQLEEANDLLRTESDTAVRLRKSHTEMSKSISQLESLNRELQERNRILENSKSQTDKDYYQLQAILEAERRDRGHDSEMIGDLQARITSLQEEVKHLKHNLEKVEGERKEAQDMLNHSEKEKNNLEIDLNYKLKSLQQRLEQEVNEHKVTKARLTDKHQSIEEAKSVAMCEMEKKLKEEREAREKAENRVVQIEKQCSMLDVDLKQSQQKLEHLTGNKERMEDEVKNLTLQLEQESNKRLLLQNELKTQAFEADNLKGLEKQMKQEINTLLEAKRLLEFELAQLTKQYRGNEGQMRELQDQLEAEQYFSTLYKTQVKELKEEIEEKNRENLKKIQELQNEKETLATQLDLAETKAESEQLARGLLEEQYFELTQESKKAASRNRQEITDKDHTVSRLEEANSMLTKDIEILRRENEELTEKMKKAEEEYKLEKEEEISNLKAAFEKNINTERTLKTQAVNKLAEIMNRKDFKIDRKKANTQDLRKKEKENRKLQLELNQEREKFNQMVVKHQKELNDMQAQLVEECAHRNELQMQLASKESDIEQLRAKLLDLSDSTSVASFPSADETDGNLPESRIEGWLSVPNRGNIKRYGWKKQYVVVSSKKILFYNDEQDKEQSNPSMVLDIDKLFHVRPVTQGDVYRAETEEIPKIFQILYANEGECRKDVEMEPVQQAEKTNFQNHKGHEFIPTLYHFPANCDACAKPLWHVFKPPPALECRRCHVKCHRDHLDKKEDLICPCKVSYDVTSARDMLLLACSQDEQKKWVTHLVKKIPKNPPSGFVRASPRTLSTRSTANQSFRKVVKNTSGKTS
Data returned: > 500 nM
